For each of the molecules below, state its GI50.
Tested on: SK-OV-3
assay explanation: NCI tumour cell line growth inhibition, 48 h
Active and inactive are the calls of the source. Cut-off read from the data, not from the text of the source: active = GI50 up to about 1.1 µM and inactive = higher.

// returns reported GI50 for input `Oc1ccc(-c2nc3ccc(F)cc3s2)cc1`
18.2 µM (inactive)

Hey, quick one: what's GI50 for each of these?
1. CCN(CC)CCNc1ccc2nnn3c4ccc(OCCN(CC)CC)cc4c(=O)c1c23
2. COc1cc2c(cc1OC)[C@H]1C(COC(=O)Nc3ccccc3)CN1CC2 (some centres not stated)
3. Cc1ccc2c(=O)cc(Cc3cccs3)[nH]c2n1
4. C/C(=N\N=C(N)N)c1sc(-c2nc(C)c(/C(C)=N/N=C(N)N)s2)nc1C
5. O=C1OC(=O)C2=C1C(c1cccs1)C=C(c1cccnc1)N2c1ccncc1 (configuration not stated)
6. Clc1ccc(-n2nnc(C3=NCCN3)c2-c2ccccc2)cc1
7. C/C(=N\Nc1nc2ccccc2o1)c1ncccn1
8. O=C1c2ccccc2C(=O)c2nn(N=P(CP(=Nn3nc4c(n3)C(=O)c3ccccc3C4=O)(c3ccccc3)c3ccccc3)(c3ccccc3)c3ccccc3)nc21

["> 100 µM (inactive)", "> 100 µM (inactive)", "> 100 µM (inactive)", "> 100 µM (inactive)", "24.9 µM (inactive)", "> 100 µM (inactive)", "0.0312 µM (active)", "> 100 µM (inactive)"]
